meta.source: patent US8173635B2

TARGET_UNDER_TEST: PKC theta kinase (Homo sapiens)
Sequence (Q04759 whole entry): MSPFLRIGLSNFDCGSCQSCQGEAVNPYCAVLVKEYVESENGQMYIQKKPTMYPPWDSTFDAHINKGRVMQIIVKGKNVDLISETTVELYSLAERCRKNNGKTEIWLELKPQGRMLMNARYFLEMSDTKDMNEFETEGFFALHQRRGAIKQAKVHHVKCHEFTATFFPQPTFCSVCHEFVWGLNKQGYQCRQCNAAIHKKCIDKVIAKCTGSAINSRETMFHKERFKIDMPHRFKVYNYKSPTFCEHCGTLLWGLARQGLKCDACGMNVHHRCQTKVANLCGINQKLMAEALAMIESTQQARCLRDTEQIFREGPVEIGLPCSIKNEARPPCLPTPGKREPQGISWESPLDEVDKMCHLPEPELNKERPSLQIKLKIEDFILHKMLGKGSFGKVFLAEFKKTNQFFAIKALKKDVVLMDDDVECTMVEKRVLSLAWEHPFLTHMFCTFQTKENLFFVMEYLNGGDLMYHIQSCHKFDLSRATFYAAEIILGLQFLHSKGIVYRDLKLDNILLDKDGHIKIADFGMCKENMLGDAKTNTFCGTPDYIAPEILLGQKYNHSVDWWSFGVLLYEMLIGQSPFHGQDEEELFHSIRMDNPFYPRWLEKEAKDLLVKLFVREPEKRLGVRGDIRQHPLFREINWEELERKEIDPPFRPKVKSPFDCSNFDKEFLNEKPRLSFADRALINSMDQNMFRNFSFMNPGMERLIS
PROCEDURE_SUMMARY: PKC theta kinase inhibition, coupled-enzyme NADH absorbance assay (Ki)
Format: biochemical
PARTICULARS: 240 μM ATP, 18 nM PKC theta, 30° C.; read-out: Ki PKC theta
OUTCOME_MEASURE: Ki

Reference set, count: 6
OC1CCc2cc(-c3ccnc4[nH]ncc34)ccc21 (stereo not shown) [Compound 27]
< 2800 nM
CC(C)(CN)c1cc(C2=CCCCC2)cc(-c2ccnc3[nH]ncc23)c1 [Compound 37]
< 2800 nM
Cc1cc(/C(=C/C#N)CN)cc(-c2ccnc3[nH]ncc23)c1 [Compound 323]
< 500 nM
CC(CN)(CC1CC1)c1cccc(-c2ccnc3[nH]ncc23)c1 (stereo not shown) [Compound 129]
< 50 nM
NCC1(c2cccc(-c3ccnc4[nH]ncc34)c2)CCC1 [Compound 49]
< 50 nM
C=CCc1cc(-c2ccnc3[nH]ncc23)cc(C(C)(C)CN)c1 [Compound 52]
< 500 nM

Could you report Ki for every entry in the following list?
1. N#CC1(c2cccc(-c3ccnc4[nH]nc(Cl)c34)c2)CCC1 [Compound 259]
2. CC(O)c1cc(-c2ccnc3[nH]ncc23)cc(C(C)(C)C#N)c1 (stereo not shown) [Compound 22]
3. C/C=C/c1cc(-c2ccnc3[nH]ncc23)cc(C(C)(C)C#N)c1 [Compound 54]
4. CC(CN)(Cc1ccccn1)c1cccc(-c2ccnc3[nH]ncc23)c1 (stereo not shown) [Compound 175]
5. CCC(F)c1cc(-c2ccnc3[nH]ncc23)cc(C(C)(C#N)CC)c1 (stereo not shown) [Compound 106]

1: < 50 nM; 2: < 500 nM; 3: < 500 nM; 4: < 500 nM; 5: < 500 nM
